Data origin, for the record: patent US9815831B2

- Test system: MDA-MB-231 cells
- ASSAY NAME: Inhibition of HGF-induced cell proliferation in MDA-MB-231 cells (MTT)
- Type: cell-based
- ASSAY CONTEXT: Homo sapiens, Table 8, HGF (50 ng/ml)
- Excerpt: 8. Inhibition of HGF-Induced Met Phosphorylation in MDA-MB-231 Cells: MDA-MB-231 is a breast cancer cell line having a high level of c-Met expression. Activation of Met kinase in these cells occurs only after the addition of its natural ligand, Hepatocyte Growth Factor (HGF). Upon binding to the extracellular domain of the enzyme, it triggers phosphorylation of tyrosine residues and regulates several downstream events such as cell proliferation. […]
pIC50: −log10 of the molar value.
Provide the reported pIC50 of each item.

NC(=O)c1c(F)cc(-c2ccc3nnn(Cc4ccc5ncsc5c4)c3n2)cc1F [Example 1006] = 7.30 to 8.00
CC(C)(O)CONC(=O)c1ccc(-c2ccc3nnn(Cc4ccc5ncccc5c4)c3n2)cc1Cl [Example 30] = > 8.00
O=C(NOCCO)c1ccc(-c2ccc3nnn(Cc4ccc5ncccc5c4)c3n2)cc1Cl [Example 6] = > 8.00

Batch request: pIC50 for each of the following compounds.
1. Cc1cc(-c2ccc3nnn(Cc4ccc5ncccc5c4)c3n2)ccc1C(=O)NOCC(C)(C)O [Example 33]
2. Cc1cc(-c2ccc3nnn(Cc4ccc5ncccc5c4)c3n2)ccc1C(=O)NOCCO [Example 25]

Response line:
7.30 to 8.00
> 8.00

###

For each entry below, report its IC50 value.
- System: Akt
- ASSAY NAME: Inhibition of Akt phosphorylation in MKN-45 cells (Western blot)
- Assay type: cell-based
- ASSAY CONTEXT: Homo sapiens, Table 6, 0-1000 nM

Take a look at these entries with their results.
Cc1cc(-c2ccc3nnn(Cc4ccc5ncccc5c4)c3n2)ccc1C(=O)NOCCO [Example 25] = 10 to 25 nM
O=C(NOCCO)c1c(F)cc(-c2ccc3nnn(Cc4cc5cccnc5cc4F)c3n2)cc1F [Example 9] = 50 to 250 nM
Cc1cc(-c2ccc3nnn(Cc4ccc5ncccc5c4)c3n2)ccc1C(=O)NOCC(C)(C)O [Example 33] = 25 to 50 nM

Consider now this further molecule.
Prompt line: Fill in reported IC50 for this entry: O=C(NOCCO)c1c(F)cc(-c2ccc3nnn(Cc4ccc5ncccc5c4)c3n2)cc1F [Example 8]
Response line: 50 to 250 nM

###

- ASSAYED TARGET: human recombinant Met kinase (Homo sapiens)
- Construct: purchased Cell Signalling Technology, Beverly, Mass
- ASSAY NAME: Colorimetric determination of c-Met kinase activity (HTScan Met Kinase Assay Kit)
- Assay type: biochemical
- ASSAY CONTEXT: Table 4A; cells marked *: tested @ 300 nM; read-out: c-Met Enzyme % inhibition
Answer each item with its documented inhibition.

CON=C(C)c1ccc2nnn(Cc3cc4cccnc4cc3F)c2n1 (racemic) = 75 to 100%

Kindly give each listed record's inhibition.
1. C/C(=N\NC(N)=S)c1ccc2nnn(Cc3ccc4ncccc4c3)c2n1
2. C/C(=N\OCCO)c1ccc2nnn(Cc3ccc4ncccc4c3)c2n1
3. NC(=O)N/N=C(\N)c1ccc2nnn(Cc3ccc4ncccc4c3)c2n1
4. CCNC(=S)N/N=C(\C)c1ccc2nnn(Cc3ccc4ncccc4c3)c2n1

Response line:
1. 75 to 100%
2. < 25%
3. < 25%
4. < 25%

Quick request: inhibition for each listed item, please.
1. C/C(=N\N1CC(=O)NC1=O)c1ccc2nnn(Cc3ccc4ncccc4c3)c2n1
2. COC(=O)N/N=C(\C)c1ccc2nnn(Cc3ccc4ncccc4c3)c2n1
3. NC(=O)CCNC(=O)c1ccc(-c2ccc3nnn(Cc4ccc5ncccc5c4)c3n2)cc1
4. C/C(=N\NC(=O)OC(C)(C)C)c1ccc2nnn(Cc3ccc4ncccc4c3)c2n1
5. CNC(=O)CCNC(=O)c1ccc(-c2ccc3nnn(Cc4ccc5ncccc5c4)c3n2)cc1
6. C/C(=N\OCCO)c1ccc2nnn(Cc3cc4cccnc4cc3F)c2n1
7. C/C(=N\NC(N)=S)c1ccc2nnn(Cc3cc4cccnc4cc3F)c2n1
8. C/C(=N\OCCN)c1ccc2nnn(Cc3ccc4ncccc4c3)c2n1

Response line:
25 to 50%
< 25%
50 to 75%
< 25%
75 to 100%
75 to 100%
75 to 100%
75 to 100%

Prompt line: Please give measured inhibition of the following entry: C/C(=N\Nc1ccccn1)c1ccc2nnn(Cc3ccc4ncccc4c3)c2n1
Response line: < 25%

###

- ASSAYED TARGET: c-Met kinase (Homo sapiens)
- Sequence (P08581 25-1390): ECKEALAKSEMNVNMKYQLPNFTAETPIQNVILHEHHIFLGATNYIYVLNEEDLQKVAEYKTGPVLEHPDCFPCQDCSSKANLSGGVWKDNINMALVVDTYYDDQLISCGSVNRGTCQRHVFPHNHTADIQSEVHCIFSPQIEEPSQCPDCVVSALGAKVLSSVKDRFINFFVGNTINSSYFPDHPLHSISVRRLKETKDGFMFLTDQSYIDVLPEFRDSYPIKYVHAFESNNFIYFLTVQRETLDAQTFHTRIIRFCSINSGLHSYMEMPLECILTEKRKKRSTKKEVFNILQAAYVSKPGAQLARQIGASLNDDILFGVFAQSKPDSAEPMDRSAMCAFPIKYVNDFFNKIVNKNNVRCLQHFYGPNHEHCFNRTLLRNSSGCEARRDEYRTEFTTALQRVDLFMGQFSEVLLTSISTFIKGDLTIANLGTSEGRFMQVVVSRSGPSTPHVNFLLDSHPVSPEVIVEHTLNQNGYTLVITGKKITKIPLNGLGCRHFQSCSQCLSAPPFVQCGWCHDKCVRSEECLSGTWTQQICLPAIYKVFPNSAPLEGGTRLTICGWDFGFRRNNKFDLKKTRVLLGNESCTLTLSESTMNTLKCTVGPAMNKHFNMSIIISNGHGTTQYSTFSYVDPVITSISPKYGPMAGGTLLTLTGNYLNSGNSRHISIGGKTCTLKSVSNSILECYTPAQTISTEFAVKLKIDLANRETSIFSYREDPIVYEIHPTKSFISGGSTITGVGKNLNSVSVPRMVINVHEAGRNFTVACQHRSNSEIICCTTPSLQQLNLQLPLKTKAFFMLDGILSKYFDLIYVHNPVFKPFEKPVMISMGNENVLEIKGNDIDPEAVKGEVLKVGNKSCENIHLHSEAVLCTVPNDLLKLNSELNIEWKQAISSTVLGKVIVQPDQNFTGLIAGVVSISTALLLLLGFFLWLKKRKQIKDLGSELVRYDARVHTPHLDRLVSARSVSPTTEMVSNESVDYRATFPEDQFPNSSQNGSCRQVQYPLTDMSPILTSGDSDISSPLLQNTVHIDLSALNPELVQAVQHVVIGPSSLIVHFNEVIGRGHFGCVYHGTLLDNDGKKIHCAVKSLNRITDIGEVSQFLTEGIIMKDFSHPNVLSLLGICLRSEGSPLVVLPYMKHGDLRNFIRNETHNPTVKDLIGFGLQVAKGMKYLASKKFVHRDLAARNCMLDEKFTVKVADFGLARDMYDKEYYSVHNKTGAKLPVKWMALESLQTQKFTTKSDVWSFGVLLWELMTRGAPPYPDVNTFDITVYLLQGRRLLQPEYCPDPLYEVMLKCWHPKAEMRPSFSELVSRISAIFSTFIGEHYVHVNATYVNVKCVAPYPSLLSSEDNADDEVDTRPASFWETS
- ASSAY NAME: Inhibition of c-Met kinase phosphorylation in NCI-H441 cells (cell based ELISA)
- ASSAY CONTEXT: Table 5, 1 h incubation
pIC50: −log10 of the molar value.
Exercise: for every item that follows, state its recorded pIC50.

CC(C)(O)CONC(=O)c1ccc(-c2ccc3nnn(Cc4ccc5ncccc5c4)c3n2)cc1Cl = 7.60 to 8.00
O=C(NOCCO)c1ccc(-c2ccc3nnn(Cc4ccc5ncccc5c4)c3n2)cc1Cl = ≥ 8.00
Cc1cc(-c2ccc3nnn(Cc4ccc5ncccc5c4)c3n2)ccc1C(=O)NOCC(C)(C)O = ≥ 8.00
O=C(NOCCO)c1c(F)cc(-c2ccc3nnn(Cc4ccc5ncccc5c4)c3n2)cc1F = 7.30 to 7.60
NC(=O)c1c(F)cc(-c2ccc3nnn(Cc4ccc5ncsc5c4)c3n2)cc1F = ≥ 8.00
O=C(NOCCO)c1ccc(-c2ccc3nnn(Cc4cc5cccnc5cc4F)c3n2)cc1Cl = ≥ 8.00
O=C(NOCCO)c1c(F)cc(-c2ccc3nnn(Cc4cc5cccnc5cc4F)c3n2)cc1F = 7.60 to 8.00

Continue with the next compound.
Prompt line: Tell me measured pIC50 for Cc1cc(-c2ccc3nnn(Cc4ccc5ncccc5c4)c3n2)ccc1C(=O)NOCCO please.
Response line: ≥ 8.00

###

- ASSAYED TARGET: human recombinant Met kinase (Homo sapiens, UniProt P08581)
- Construct: purchased Cell Signalling Technology, Beverly, Mass
- Sequence (P08581 25-1390): as above
- ASSAY NAME: Colorimetric determination of c-Met kinase activity (HTScan Met Kinase Assay Kit)
- Type: biochemical
- ASSAY CONTEXT: Table 4B; read-out: c-Met Enzyme IC50
Consider the following molecules; for each one, report its IC50.

CN(C)CCNC(=O)c1c(F)cc(-c2ccc3ncn(Cc4ccc5ncccc5c4)c3n2)cc1F [Example 104] = 100 to 250 nM

Prompt line: Using the record for C/C(=N\NC(N)=O)c1ccc2ncn(Cc3ccc4ncccc4c3)c2n1 [Example 107] , state its measured IC50.
Response line: 100 to 250 nM

###

- ASSAYED TARGET: human recombinant Met kinase (Homo sapiens, UniProt P08581)
- Construct: purchased Cell Signalling Technology, Beverly, Mass
- ASSAY NAME: Colorimetric determination of c-Met kinase activity (HTScan Met Kinase Assay Kit)
- Assay type: biochemical
- ASSAY CONTEXT: Table 4C; 100 nM (cells without *); read-out: c-Met Enzyme % inhibition @ 100 nM
MEASURED ATTRIBUTE: inhibition at 0.1 µM

Would you please look over these solved cases?
Cc1cc(-c2ccc3ncn(Cc4cc5cccnc5cc4F)c3n2)ccc1C(N)=O = 75 to 100%
O=C1NCc2cc(-c3ccc4ncn(Cc5ccc6ncccc6c5)c4n3)ccc21 = < 25%
CNC(=O)c1ccc(-c2ccc3ncn(Cc4ccc5ncccc5c4)c3n2)cn1 = < 25%
O=C1NCc2cc(-c3ccc4nnn(Cc5ccc6ncccc6c5)c4n3)ccc21 = 75 to 100%
NC(=O)c1ccc(-c2ccc3nnn(Cc4cc5ccc[n+]([O-])c5cc4F)c3n2)cc1Cl = < 25%
Cc1cc(-c2ccc3ncn(Cc4c(F)cc5ncccc5c4F)c3n2)ccc1C(N)=O = 75 to 100%
NC(=O)c1c(F)cc(-c2ccc3nnn(Cc4ccc5[nH]c(=O)ccc5c4)c3n2)cc1F = < 25%

Prompt line: Identify measured inhibition at 0.1 µM corresponding to CNC(=O)c1ccc(-c2ccc3ncn(Cc4ccc5ncccc5c4)c3n2)cc1C
Response line: < 25%

###

Consider the following molecules; for each one, report its inhibition at 0.1 µM.
- System: MKN-45
- ASSAY NAME: Inhibition of MKN-45 proliferation (MTT)
- Assay type: cell-based, human
- ASSAY CONTEXT: Homo sapiens, MKN-45, Table 4C; 100 nM; MKN-45 proliferation; read-out: MKN45 % inhibition @ 100 nM

CC(c1ccc2ncccc2c1)n1cnc2ccc(-c3ccc(C(N)=O)c(Cl)c3)nc21 (centres unmarked) = 25 to 50%
Cc1nc2ccc(-c3ccc(C(N)=O)c(Cl)c3)nc2n1Cc1ccc2ncccc2c1 = 50 to 75%
CNC(=O)c1ccc(-c2ccc3ncn(Cc4ccc5ncccc5c4)c3n2)cc1Cl = < 25%

# map each molecule to its inhibition at 0.1 µM
1. NC(=O)c1ccc(-c2ccc3ncn(Cc4ccc5ncccc5c4)c3n2)cc1Cl
2. NC(=O)c1c(F)cc(-c2ccc3nnn(Cc4ccc5ncsc5c4)c3n2)cc1F
3. Cc1cc(-c2ccc3ncn(Cc4ccc5ncccc5c4)c3n2)ccc1C(N)=O
4. NC(=O)c1ccc(-c2ccc3ncn(Cc4c(F)cc5ncccc5c4F)c3n2)cc1C(F)(F)F
5. NC(=O)c1ccc(-c2ccc3ncn(Cc4cc5cccnc5cc4F)c3n2)cc1Cl

Response line:
["25 to 50%", "75 to 100%", "25 to 50%", "75 to 100%", "50 to 75%"]
